assay.explanation: qHTS of pediatric cancer cell lines to identify multiple opportunities for drug repurposing: Primary screen for Rh30 cells (AID 1347107); further: nearly all actives have a fitted effect of over 75% in size
experimental.setup: Rh30 rhabdomyosarcoma viability, CellTiter-Glo luminescence, 48 h; series mostly up to 46 µM
Records with an inconclusive call do not appear. Calls of active or inactive are those of the source. The call rests on the fitted dose curve; in most records, active means well fitted cell-killing curve with a large enough effect; inconclusive means small, poorly fitted or top-dose-only effect; inactive means no such curve, though single readings can be large or run the other way.
assay.endpoint: activity change, negative = cytotoxic

Worked examples follow.
CSc1ccc(C(=O)c2[nH]c(=O)[nH]c2C)cc1: inactive
Cc1ccc(/C(=C\CN2CCCC2)c2ccccn2)cc1: inactive
CNCCCN1c2ccccc2CCc2ccccc21: inactive
CC(C(=O)O)c1ccc(CC2CCCC2=O)cc1 (configuration not stated): inactive
C#CCN(C)CCCOc1ccc(Cl)cc1Cl: inactive
CCCNC(C)C(=O)Nc1ccccc1C (configuration not stated): inactive
CCN(CC)CC(=O)Nc1c(C)cccc1C: inactive
CCN1CCC[C@H]1CNC(=O)c1c(O)c(Cl)cc(Cl)c1OC: inactive
CCCN(CCC)C(=O)C(CCC(=O)O)NC(=O)c1ccccc1 (configuration not stated): inactive
CN(C)CCCN1c2ccccc2Sc2ccc(C(F)(F)F)cc21: inactive

[Q] Specify reported activity change, negative = cytotoxic for the molecule shown: "CC(=O)Nc1nnc(S(N)(=O)=O)s1"
[A] inactive

[Q] Specify reported activity change, negative = cytotoxic for the molecule shown: "C[C@]12CCC(=O)C=C1CC[C@@H]1[C@@H]2CC[C@@]2(C)[C@H]1CC[C@]2(O)C(=O)CO"
[A] inactive

---

Test system: W2
assay.explanation: qHTS profiling for inhibitors of Plasmodium falciparum proliferation (AID 504749); further: nearly all actives have a fitted effect of over 60% in size
experimental.setup: P. falciparum in erythrocytes, SYBR Green DNA, 72 h; series mostly up to 28.7 µM
Inconclusive results are not listed. Active and inactive are the calls of the source. The call rests on the fitted dose curve; in most records, active means well fitted inhibition curve with a large enough effect; inconclusive means small, poorly fitted or top-dose-only effect; inactive means flat fitted curve, though single readings scatter.
Bench note: report the call from active, inactive

Example cases with answers are listed next.
CCO/C([O-])=N/c1c[n+](N2CCOCC2)no1: inactive
C[C@H](CS)C(=O)N1CCC[C@H]1C(=O)O: inactive
OCCN1CCN(CCCN2c3ccccc3C=Cc3ccccc32)CC1: active
CC(C)(Oc1ccc(CCNC(=O)c2ccc(Cl)cc2)cc1)C(=O)O: inactive
FC(F)(F)c1ccccc1-n1ccnc1: inactive
CC(C)NNC(=O)c1ccncc1: inactive
Cc1nnc(SCC2=C(C(=O)O)N3C(=O)[C@@H](NC(=O)Cn4cnnn4)[C@H]3SC2)s1: inactive
CC(N=C(NC#N)Nc1ccncc1)C(C)(C)C (configuration not stated): inactive

[Q] Please indicate how the test categorized "CCN(CC)CCOCCOC(=O)C1(c2ccccc2)CCCC1" .
[A] active

[Q] Please indicate how the test categorized "c1cc(CN2CCCCC2)cc(OCCCNc2nc3ccccc3s2)c1" .
[A] active

[Q] Please indicate how the test categorized "NCCCNCCSP(=O)(O)O" .
[A] inactive

[Q] Please indicate how the test categorized "O=C(O)CN(CCN(CC(=O)O)CC(=O)O)CCN(CC(=O)O)CC(=O)O" .
[A] inactive

---

assay.explanation: qHTS profiling for inhibitors of Plasmodium falciparum proliferation (AID 504749); further: nearly all actives have a fitted effect of over 60% in size; further: potency means the concentration at half of the fitted maximal effect
experimental.setup: P. falciparum in erythrocytes, SYBR Green DNA, 72 h; parasite line A
Records with an inconclusive call do not appear. Calls of active or inactive are those of the source. The call rests on the fitted dose curve; in most records, active means well fitted inhibition curve with a large enough effect; inconclusive means small, poorly fitted or top-dose-only effect; inactive means flat fitted curve, though single readings scatter.
Potency values for the compounds below.

Worked examples follow.
CCN(CC)CCCN(c1ccccc1)C1Cc2ccccc2C1: 4.47 µM (active)
COCC(=O)O[C@]1(CCN(C)CCCc2nc3ccccc3[nH]2)CCc2cc(F)ccc2[C@@H]1C(C)C: 3.55 µM (active)
CC(=O)[C@]1(O)Cc2c(O)c3c(c(O)c2[C@@H](O[C@H]2C[C@H](N)[C@H](O)[C@H](C)O2)C1)C(=O)c1ccccc1C3=O: 3.55 µM (active)

Proceeding to the next compound to report its Potency.
[Q] Specify reported Potency for the compound shown: COC(=O)C1=C(C)NC(C)=C(C(=O)OC(C)(C)CN(C)CCC(c2ccccc2)c2ccccc2)C1c1cccc([N+](=O)[O-])c1 (centres undefined)
[A] 2 µM (active)

// data source = PubChem BioAssay (NCATS)
